Target: T1, 14-3-3ζ (human, UniProt P63104 1-245)
T1 construct: N-terminal glycine retained after TEV cleavage of the His tag; 14-3-3 zeta, human, ORF purchased from GeneCopoeia, full-length construct; Dimer (~56 kDa); the stoichiometry n counts on the 14-3-3 monomer; also called full-length 14-3-3ζ; source: E. coli BL21 (DE3) pLysS, purified (Ni Sepharose, TEV cleavage, second Ni Sepharose pass); not shown: His tag, N-terminal, cleaved
T1 sequence: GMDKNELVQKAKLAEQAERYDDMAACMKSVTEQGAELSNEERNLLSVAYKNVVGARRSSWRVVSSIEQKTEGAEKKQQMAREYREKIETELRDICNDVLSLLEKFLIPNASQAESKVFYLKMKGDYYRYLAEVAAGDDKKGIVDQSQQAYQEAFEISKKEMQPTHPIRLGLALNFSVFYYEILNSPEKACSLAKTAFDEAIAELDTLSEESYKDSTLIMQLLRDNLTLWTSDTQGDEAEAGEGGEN
Assay: ITC; duplicate set of titrations; 5 uL aliquots of ~1-2 mM peptide titrated into the 1.4 mL cell with ~100-200 uM 14-3-3ζ; 25 °C; 50 mM sodium phosphate, 100 mM NaCl, 1 mM DTT, pH 6.8; one-site model; n per 14-3-3 monomer
Settings: both partners purified
pKd: −log10 of the molar value. Square brackets hold non-standard residues; d marks the D form. Ends that are not written are not given here. pS = N[C@@H](COP(=O)(O)O)C(=O)O
Tag: 1 if measured pKd is not below 5, 0 if it is.

Example cases with answers are listed next.
binder	category
KTPPRKSA[pS]LSNAHSLDR (Chibby (Cby), human, residues 12-29 with L24A; also called Cby L24A 18-mer; source: synthetic peptide, bought (GenScript USA Inc. or TUFTS University Core Facility)) [Cby 18-mer L24A]	0
KTPPRKSA[pS]LS-NH2 (N-terminus assumed; SMILES CC(C)C[C@H](NC(=O)[C@H](COP(=O)(O)O)NC(=O)[C@H](C)NC(=O)[C@H](CO)NC(=O)[C@H](CCCCN)NC(=O)[C@H](CCCNC(=N)N)NC(=O)[C@@H]1CCCN1C(=O)[C@@H]1CCCN1C(=O)[C@@H](NC(=O)[C@@H](N)CCCCN)[C@@H](C)O)C(=O)N[C@@H](CO)C(N)=O, Chibby (Cby), human, residues 12-22; source: synthetic peptide, bought: TUFTS University Core Facility) [pCby 11-mer]	0
KTPPRKSA[pS]LSNLHSLDR (Chibby (Cby), human, residues 12-29; also called Cby 18-mer WT; source: synthetic peptide, bought: GenScript USA Inc) [pCby 18-mer]	1
Ac-RKSA[pS]LP-NH2 (SMILES CC(=O)N[C@@H](CCCNC(=N)N)C(=O)N[C@@H](CCCCN)C(=O)N[C@@H](CO)C(=O)N[C@@H](C)C(=O)N[C@@H](COP(=O)(O)O)C(=O)N[C@@H](CC(C)C)C(=O)N1CCC[C@H]1C(N)=O, Chibby (Cby), human, residues 16-22 with S22P; also called Cby 7-mer S22P; 16RKSA(pS)LP22; source: synthetic peptide, bought: TUFTS University Core Facility) [pCby S22P 7-mer]	1
KTPPRKSA[pS]LPNL (Chibby (Cby), human, residues 12-24 with S22P; also called Cby 13-mer S22P; source: synthetic peptide, bought: TUFTS University Core Facility) [pCby S22P 13-mer]	1

Item Ac-RKSA[pS]LS-NH2 (SMILES CC(=O)N[C@@H](CCCNC(=N)N)C(=O)N[C@@H](CCCCN)C(=O)N[C@@H](CO)C(=O)N[C@@H](C)C(=O)N[C@@H](COP(=O)(O)O)C(=O)N[C@@H](CC(C)C)C(=O)N[C@@H](CO)C(N)=O, Chibby (Cby), human, residues 16-22; also called 16RKSA(pS)LS22; source: synthetic peptide, bought: TUFTS University Core Facility) [pCby 7-mer] with pKd of 5 or above?
0

Item KTPPRKSA[pS]LPNLHSLDR (Chibby (Cby), human, residues 12-29 with S22P; also called Cby 18-mer S22P; source: synthetic peptide, bought: TUFTS University Core Facility) [pCby S22P 18-mer] with pKd of 5 or above?
1

Numbers sourced from paper PMC4409382.
